Some molecules, each annotated with its measured relative viability.
Tested on: NCI-H2405
PROTOCOL SUMMARY: relative viability (nuclei count vs DMSO), 5 days (fraction); higher = more cells survive
MEASUREMENT CONTEXT: first compound 0.005 µM

{"MOLECULE": "COc1cc2nccc(Oc3ccc(NC(=O)Nc4cc(C)on4)c(Cl)c3)c2cc1OC [Tivozanib] + COc1cccc2cc(-c3nc([C@H]4CC[C@H](C(=O)O)CC4)n4ncnc(N)c34)[nH]c12 [OSI-027] (partner 0.5 µM)", "relative viability": 0.631}
{"MOLECULE": "Nc1ccn([C@@H]2O[C@H](CO)[C@@H](O)[C@@H]2O)c(=O)n1 [Cytarabine] + NC(=O)Nc1cc(-c2cccc(F)c2)sc1C(=O)N[C@H]1CCCNC1 [AZD7762] (partner 0.2 µM)", "relative viability": 0.612}
{"MOLECULE": "COc1cc2nccc(Oc3ccc(NC(=O)Nc4cc(C)on4)c(Cl)c3)c2cc1OC [Tivozanib] + CC1(C)CCC(c2ccc(Cl)cc2)=C(CN2CCN(c3ccc(C(=O)NS(=O)(=O)c4ccc(N[C@H](CCN5CCOCC5)CSc5ccccc5)c(S(=O)(=O)C(F)(F)F)c4)cc3)CC2)C1 [Navitoclax] (partner 0.5 µM)", "relative viability": 0.861}
{"MOLECULE": "Nc1ccn([C@@H]2O[C@H](CO)[C@@H](O)[C@@H]2O)c(=O)n1 [Cytarabine] + CC(=O)c1c(C)c2cnc(Nc3ccc(N4CCNCC4)cn3)nc2n(C2CCCC2)c1=O [Palbociclib] (partner 0.5 µM)", "relative viability": 0.518}
{"MOLECULE": "COc1cc2nccc(Oc3ccc(NC(=O)Nc4cc(C)on4)c(Cl)c3)c2cc1OC [Tivozanib] + CC(=O)Nc1cccc(-n2c(=O)n(C3CC3)c(=O)c3c(Nc4ccc(I)cc4F)n(C)c(=O)c(C)c32)c1 [Trametinib] (partner 0.02 µM)", "relative viability": 0.543}
{"MOLECULE": "COc1cc2nccc(Oc3ccc(NC(=O)Nc4cc(C)on4)c(Cl)c3)c2cc1OC [Tivozanib] + CCNC(=O)c1noc(-c2cc(C(C)C)c(O)cc2O)c1-c1ccc(CN2CCOCC2)cc1 [Luminespib] (partner 0.01 µM)", "relative viability": 0.644}
{"MOLECULE": "COc1cc2nccc(Oc3ccc(NC(=O)Nc4cc(C)on4)c(Cl)c3)c2cc1OC [Tivozanib] + O=C(c1cc(Cc2n[nH]c(=O)c3ccccc23)ccc1F)N1CCN(C(=O)C2CC2)CC1 [Olaparib] (partner 8 µM)", "relative viability": 0.831}
{"MOLECULE": "COc1cc2nccc(Oc3ccc(NC(=O)Nc4cc(C)on4)c(Cl)c3)c2cc1OC [Tivozanib] + NC(=O)Nc1cc(-c2cccc(F)c2)sc1C(=O)N[C@H]1CCCNC1 [AZD7762] (partner 0.2 µM)", "relative viability": 0.759}
{"MOLECULE": "Nc1ccn([C@@H]2O[C@H](CO)[C@@H](O)[C@@H]2O)c(=O)n1 [Cytarabine] + Nc1ncn([C@H]2C[C@H](O)[C@@H](CO)O2)c(=O)n1 [Decitabine] (partner 2 µM)", "relative viability": 0.666}

====

Test system: NCI-H2087
PROTOCOL SUMMARY: relative viability (nuclei count vs DMSO), 5 days (fraction); higher = more cells survive
MEASUREMENT CONTEXT: first compound 0.253 µM

{"MOLECULE": "O=c1[nH]c2ccccc2n1C1CCN(CCCC(c2ccc(F)cc2)c2ccc(F)cc2)CC1 [Pimozide] + Nc1ncn([C@H]2C[C@H](O)[C@@H](CO)O2)c(=O)n1 [Decitabine] (partner 2 µM)", "relative viability": 0.328}
{"MOLECULE": "O=c1[nH]c2ccccc2n1C1CCN(CCCC(c2ccc(F)cc2)c2ccc(F)cc2)CC1 [Pimozide] + C[C@@H](Oc1cc(-c2cnn(C3CCNCC3)c2)cnc1N)c1c(Cl)ccc(F)c1Cl [Crizotinib] (partner 1 µM)", "relative viability": 0.721}
{"MOLECULE": "O=c1[nH]c2ccccc2n1C1CCN(CCCC(c2ccc(F)cc2)c2ccc(F)cc2)CC1 [Pimozide] + CC(=O)Nc1cccc(-n2c(=O)n(C3CC3)c(=O)c3c(Nc4ccc(I)cc4F)n(C)c(=O)c(C)c32)c1 [Trametinib] (partner 0.02 µM)", "relative viability": 0.24}
{"MOLECULE": "O=c1[nH]c2ccccc2n1C1CCN(CCCC(c2ccc(F)cc2)c2ccc(F)cc2)CC1 [Pimozide] + CC(C)C[C@H](NC(=O)[C@H](Cc1ccccc1)NC(=O)c1cnccn1)B(O)O [Bortezomib] (partner 0.002 µM)", "relative viability": 0.815}
